# Test system: MS2 coat protein
# Assay Text: apparent Kd, MS2 coat protein; higher = weaker binding; RNA-MaP array
# Cond: designed as: ON switch for flavin mononucleotide; no ligand
Property Label: apparent Kd (µM)
Form entry: value (µM) — number only.

// returns reported apparent Kd for input CGAUUACUGCAGAAGGGAGGGCCACAAAACAUGAGGAUCACCCAUGUAGAACUGAACGGGACUCCUCAGGAUAUGCGCCGAGAU
0.0287

// returns reported apparent Kd for input AGUCGUUAACGGCGCAACACAUGAGGAUCACCCAUGUGCUAUGAGGAUAUCCGGGUGUACAAGCCGGAGAAGGCAUCGUUCUUU
0.0106

// returns reported apparent Kd for input AUUAACUCAGCAGGAUAUCUCAGCGGACGUUGCAGAGAAGGGCUAUGCCUAUGUAGGCAACUCACAUGAGGAUCACCCAUGUAA
0.0387

// returns reported apparent Kd for input CGCCUACAUGAGGAUCACCCAUGUGAUGUUACGGUAGGAUAUAGAGCUGAGCCACUCUGCCUAGAAGGACCUAUAC
0.0688

// returns reported apparent Kd for input CAGCCGGCCUAGAAGGUCGAAAUCCAAAUCGUCGAAGGAUAUAGGUCCAGAAAACAAUUACAUGAGGAUCACCCAUGUAUCCUG
0.0215

// returns reported apparent Kd for input GAAGAAAAGUGAGGAUAUGGCAACCAGAUGACGCAAACAAUAAAACAUGAGGAUCACCCAUGUACCCAGAAGGCACCAAACAAA
0.0152

// returns reported apparent Kd for input CUUUAUACAUGAGGAUAUUGGAAAACCGGCGUACAAGAAGGCAUGACAUGAGGAUCACCCAUGUAAAGAUAAAGACAAAGCUAA
0.0227

// returns reported apparent Kd for input UAUUUGGCGCUAGGAUAUAAAGGAACUAUUUAAUUAGAAGGAGCACGGGAACCUGAGGUACAUGAGGAUCACCCAUGUCUGAUA
0.0176

// returns reported apparent Kd for input CAUAAACCCUAGAAGGGCGCAUUAUGUAGAUUCGCAGGAUAUAGGAACGGGAUCGUGUAUACAACAUGAGGAUCACCCAUGUCA
0.0154

// returns reported apparent Kd for input GACCCUACGGAGAAGGCACCUACAUGAGGAUCACCCAUGUUUGAUCGUUUGCCGGACGGCUUACGUGAGGAUAUCCAGGUACAG
0.0148

// returns reported apparent Kd for input ACUCGGGGUUGAGGAUAUUCGACUCGAUCUCCACAUGAGGAUCACCCAUGUCAGGACUGACCGGUGAAGAAGGCAACCGUACAU
0.0163

// returns reported apparent Kd for input GAAUAGGAUCAGAAGGAGCUCCAACGGUGACAUGAGGAUCACCCAUGUACUAAACUACAGAAAAGCUAGGAUAUGAAUAAUAGG
0.0277

// returns reported apparent Kd for input AAUACAUGAGGAUCACCCAUGUUGACAUCAUGAGCCAACCUUAGAAGGACUUUAAUGACGCUCGAGUAGGAUAUAAGGCAAGUU
0.0137

// returns reported apparent Kd for input CCUGAGGUUAUAGGAUAUAGGCUAGAGAGGUACGAUUCUUUAUGAACAUGAGGAUCACCCAUGUCCUAGAAGGAUACUUAGUAG
0.0581

---

For each entry below, report its apparent Kd value.
# Tested on: MS2 coat protein
# Assay Text: apparent Kd, MS2 coat protein; higher = weaker binding; RNA-MaP array
# Cond: ligand present: flavin mononucleotide; designed as: OFF switch for flavin mononucleotide
Form entry: value (nM) — number only.

// returns reported apparent Kd for input GCGCGCGGUGGCGGUCAACAUGAGGAUCACCCAUGUGUGAACAGAAGGCGCGUAUGCUACCAUGGCGAGGAUAUGUUGGGUCAG
5.99

// returns reported apparent Kd for input UGGCGCUGUGCAGGAUAUAUCAAUUAGAACAGGGCGCAGGGUAGAAACAUGAGGAUCACCCAUGUAUAGAAGGGCACAGUAGGU
49.7

// returns reported apparent Kd for input CGCCACACAUGAUAAUCAUAACAUGAGGAUCACCCAUGUCAUAGAAGGUGCAUAUUUUAGAAUCGCAAGGAUAUAUGGACAAUU
18.7

// returns reported apparent Kd for input UUGGGACAUGAGGAUCACCCAUGUCAGGAUAUAUAUAAUCUGCGCGACGAGGGAUACAAUAGAAGGGACAACGG
15.1

Values were extracted from the EternaBench riboswitch data.
